Biological target: BRSK1 (human) (UniProt Q8TDC3)
Sequence (Q8TDC3 whole entry, looked up): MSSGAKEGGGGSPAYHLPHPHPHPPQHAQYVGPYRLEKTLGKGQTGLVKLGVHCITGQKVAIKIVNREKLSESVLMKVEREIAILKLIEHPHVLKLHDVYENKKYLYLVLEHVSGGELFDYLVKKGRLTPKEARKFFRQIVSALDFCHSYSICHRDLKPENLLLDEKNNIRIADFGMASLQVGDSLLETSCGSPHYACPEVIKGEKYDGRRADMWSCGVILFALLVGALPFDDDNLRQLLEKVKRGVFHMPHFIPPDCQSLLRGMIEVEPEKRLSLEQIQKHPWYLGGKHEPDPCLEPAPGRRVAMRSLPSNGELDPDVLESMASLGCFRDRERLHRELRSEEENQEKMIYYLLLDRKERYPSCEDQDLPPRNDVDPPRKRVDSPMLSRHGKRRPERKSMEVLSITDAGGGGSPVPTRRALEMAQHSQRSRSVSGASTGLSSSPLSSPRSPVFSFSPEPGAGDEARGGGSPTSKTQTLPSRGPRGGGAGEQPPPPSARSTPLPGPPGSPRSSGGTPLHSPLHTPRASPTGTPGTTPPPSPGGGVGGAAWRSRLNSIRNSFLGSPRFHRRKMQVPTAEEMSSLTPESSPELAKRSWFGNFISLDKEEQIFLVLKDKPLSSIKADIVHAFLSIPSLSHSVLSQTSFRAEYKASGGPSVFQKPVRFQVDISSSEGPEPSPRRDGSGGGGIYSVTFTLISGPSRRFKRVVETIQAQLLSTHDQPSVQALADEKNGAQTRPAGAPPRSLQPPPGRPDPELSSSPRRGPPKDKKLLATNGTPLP
Test: radiometric filter-binding kinase assay
Conditions: compound 100.0 µM; ATP 20 µM
measurement_type: inhibition (%)

Consider the reported inhibition for these compounds:
CC(=O)Nc1nc2cnc(-c3ccccc3)cn2n1 ... 23
CC(C)(C)Nc1c(C2CC2)nc2[nH]cnn12 ... 0

[I] O=c1cc(-c2ccccc2F)nc2[nH]ccn12
[II] Nc1nc2cnc(-c3ccccc3)cn2n1
[III] O=C(Nc1cnc2[nH]cnn2c1=O)c1ccccc1
**Query** Order by inhibition, ascending. Give your ranking as a list of the labels in the requested order.
**Result** III, II, I

* * *

Molecular target: NTRK1 (human)
Assay: radiometric filter-binding kinase assay
Settings: compound 100.0 µM; ATP 20 µM
measurement_type: inhibition (%)

CC(C)(C)Nc1c(C2CC2)nc2[nH]cnn12 ... 27

[a] O=c1c(NC(=S)NCc2ccccc2)cnc2[nH]ccn12
[b] Nc1nc2cnc(-c3ccccc3)cn2n1
**Query** Pick one: a or b . Which one has the lower reported inhibition? Use the label to indicate which entry you chose.
**Result** a

* * *

Target: MAP3K5 (human)
Assay: radiometric filter-binding kinase assay
Settings: compound 100.0 µM; ATP 50 µM
measurement_type: inhibition (%)

CC(C)(C)Nc1c(COCc2ccccc2)nc2[nH]cnn12 ... 2
O=C(Nc1cnc2[nH]ccn2c1=O)c1ccccc1 ... 0
Cc1cccc(C)c1-c1cn2nc(N)nc2cn1 ... 15
CC(=O)Nc1nc2cnc(-c3ccccc3)cn2n1 ... 25
CC1CN(c2nc3ccccn3c(=O)c2N)CC(C)O1 (centres undefined) ... 4

[I] COc1ccc(NC(=S)Nc2cnc3[nH]cnn3c2=O)cn1
[II] Nc1cnc2c(-c3c(F)cccc3F)cccn2c1=O
[III] Nc1nc2cnc(-c3ccccc3)cn2n1
**Query** // ranking: key=inhibition, reverse=True Show the ranking through the labels, in the order asked for.
**Result** II, III, I
(II: 86%, III: 32%, I: 16%)

[1] O=C(Nc1cnc2[nH]cnn2c1=O)c1ccccc1
[2] O=c1c(NC(=S)NCc2ccccc2)cnc2[nH]ccn12
[3] CC(C)(C)Nc1c(C2CC2)nc2[nH]cnn12
[4] O=C(c1cccc(-c2cc3c(=O)[nH]cnc3s2)c1)N1CCOCC1
**Query** Please give the order of these molecules when sorted by inhibition, largest value leading. Rank them, then answer with their labels in that order.
**Result** 4, 1, 3, 2

[1] CC(=O)Nc1nc2cnc(-c3c(C)cccc3C)cn2n1
[2] COc1ccc(-c2cc3c(=O)[nH]cnc3s2)cc1OC
**Query** Please choose the item with the lower inhibition value from this pair: 1 and 2 Could you answer with the label of the item you picked?
**Result** 1
(1: 0%, 2: 19%)

* * *

Molecular target: MAP3K9 (human)
Assay: radiometric filter-binding kinase assay
Details: compound 100.0 µM; ATP 20 µM
measurement_type: inhibition (%)

Worked examples, 3 compounds total:
O=c1c(NC(=S)NCc2ccccc2)cnc2[nH]ccn12 ... 0
O=C(c1cccc(-c2cc3c(=O)[nH]cnc3s2)c1)N1CCOCC1 ... 0
CC(C)(C)Nc1c(C2CC2)nc2[nH]cnn12 ... 0

[A] Nc1cnc2c(-c3c(F)cccc3F)cccn2c1=O
[B] O=c1cc(-c2ccccc2F)nc2[nH]ccn12
**Query** Of A and B , which one carries the higher reported inhibition? Write down the label attached to your selection.
**Result** A
(A: 79%, B: 0%)
